target: Protein deacetylase HDAC6 (Homo sapiens, UniProt Q9UBN7); assay: Inhibition of N-terminal GST tagged human recombinant HDAC6 (1 to 1215 residues) expressed in Sf9 insect cells using Z-Lys(Ac)-AMC as fluorogenic substrate preincubated for 2 hrs followed by substrate addition and measured after 90 mins by microplate reader analysis
Consider the following molecules; for each one, report its IC50.
Reply with just the number (in nM).

Requested field: IC50. Item: FC(F)c1nnc(-c2cnc(NCc3ccccc3)nc2)o1
129

// query: FC(F)(F)c1nnc(-c2cnc(NCc3ccccc3)nc2)o1
601

###

Biological target: Protein deacetylase HDAC6 (Homo sapiens) (UniProt Q9UBN7)
Sequence (whole entry): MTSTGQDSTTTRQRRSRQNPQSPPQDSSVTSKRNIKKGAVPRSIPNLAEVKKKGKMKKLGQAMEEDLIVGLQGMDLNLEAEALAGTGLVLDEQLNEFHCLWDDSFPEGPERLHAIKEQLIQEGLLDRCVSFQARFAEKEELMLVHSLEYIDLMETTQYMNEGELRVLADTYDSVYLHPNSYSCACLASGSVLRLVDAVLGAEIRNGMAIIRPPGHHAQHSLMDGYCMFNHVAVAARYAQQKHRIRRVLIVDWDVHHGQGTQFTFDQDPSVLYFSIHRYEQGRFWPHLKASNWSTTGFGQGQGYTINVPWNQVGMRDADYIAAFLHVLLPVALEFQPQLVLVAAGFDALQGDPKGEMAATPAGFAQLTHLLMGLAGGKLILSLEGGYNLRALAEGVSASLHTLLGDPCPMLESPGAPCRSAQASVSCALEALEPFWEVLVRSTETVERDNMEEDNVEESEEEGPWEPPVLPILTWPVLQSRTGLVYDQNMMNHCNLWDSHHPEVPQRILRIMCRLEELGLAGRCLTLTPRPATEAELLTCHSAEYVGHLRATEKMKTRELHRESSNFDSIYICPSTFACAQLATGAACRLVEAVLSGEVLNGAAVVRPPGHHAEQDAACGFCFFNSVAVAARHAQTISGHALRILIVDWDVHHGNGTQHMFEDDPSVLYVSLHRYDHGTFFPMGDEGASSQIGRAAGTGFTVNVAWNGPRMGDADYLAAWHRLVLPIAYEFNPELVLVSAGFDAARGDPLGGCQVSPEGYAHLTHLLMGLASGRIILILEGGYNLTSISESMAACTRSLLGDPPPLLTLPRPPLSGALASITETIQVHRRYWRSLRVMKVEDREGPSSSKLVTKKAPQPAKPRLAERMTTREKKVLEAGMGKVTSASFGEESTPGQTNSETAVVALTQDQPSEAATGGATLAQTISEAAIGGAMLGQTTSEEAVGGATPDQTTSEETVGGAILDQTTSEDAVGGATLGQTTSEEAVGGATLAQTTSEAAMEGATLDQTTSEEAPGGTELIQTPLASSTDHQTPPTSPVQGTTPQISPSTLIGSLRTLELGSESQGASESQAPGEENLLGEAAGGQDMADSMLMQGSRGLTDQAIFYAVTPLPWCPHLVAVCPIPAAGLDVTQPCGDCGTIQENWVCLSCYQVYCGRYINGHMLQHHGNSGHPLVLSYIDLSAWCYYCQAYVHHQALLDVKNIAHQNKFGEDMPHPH
Assay: Inhibition of N-terminal GST tagged human recombinant HDAC6 (1 to 1215 residues) expressed in Sf9 insect cells using Z-Lys(Ac)-AMC as fluorogenic substrate at 10 uM preincubated for 60 mins followed by substrate addition and measured after 90 mins by microplate reader analysis relative to control
Details: time 150.0 min
Label FALSE if inhibition falls below 50%; label TRUE in every other case.

Dear colleague, could you confirm whether CN(C)c1ccc(C(=O)N(CC(=O)NCc2ccccc2)Cc2ccc(-c3nnc(C(F)F)o3)cc2)cc1 has inhibition at or above 50%?
FALSE

// query: O=C(NNC(=O)C(F)F)c1cnc(NCc2ccccc2)nc1
FALSE

// query: Cc1nnc(-c2cnc(NCc3ccccc3)nc2)o1
FALSE

// query: FC(F)c1nnc(-c2cncnc2)o1
TRUE

// query: FC(F)c1nnc(-c2ccccc2)o1
FALSE

// query: NNC(=O)c1cnc(NCc2ccccc2)nc1
FALSE

// query: CCCCN(Cc1ccc(-c2nnc(C(F)F)o2)cc1)C(=O)c1ccccc1
TRUE

// query: Cc1ccc(-c2nnc(C(F)F)o2)cn1
FALSE

// query: CCCCN(Cc1ccc(-c2nnc(C(F)F)o2)cc1)C(=O)Nc1ccccc1
TRUE

// query: FCc1nnc(-c2cnc(NCc3ccccc3)nc2)o1
TRUE

###

Consider the following compounds; for each one, report its pIC50.
Molecular target: Protein deacetylase HDAC6 (Homo sapiens, UniProt Q9UBN7)
Sequence (Q9UBN7 whole entry): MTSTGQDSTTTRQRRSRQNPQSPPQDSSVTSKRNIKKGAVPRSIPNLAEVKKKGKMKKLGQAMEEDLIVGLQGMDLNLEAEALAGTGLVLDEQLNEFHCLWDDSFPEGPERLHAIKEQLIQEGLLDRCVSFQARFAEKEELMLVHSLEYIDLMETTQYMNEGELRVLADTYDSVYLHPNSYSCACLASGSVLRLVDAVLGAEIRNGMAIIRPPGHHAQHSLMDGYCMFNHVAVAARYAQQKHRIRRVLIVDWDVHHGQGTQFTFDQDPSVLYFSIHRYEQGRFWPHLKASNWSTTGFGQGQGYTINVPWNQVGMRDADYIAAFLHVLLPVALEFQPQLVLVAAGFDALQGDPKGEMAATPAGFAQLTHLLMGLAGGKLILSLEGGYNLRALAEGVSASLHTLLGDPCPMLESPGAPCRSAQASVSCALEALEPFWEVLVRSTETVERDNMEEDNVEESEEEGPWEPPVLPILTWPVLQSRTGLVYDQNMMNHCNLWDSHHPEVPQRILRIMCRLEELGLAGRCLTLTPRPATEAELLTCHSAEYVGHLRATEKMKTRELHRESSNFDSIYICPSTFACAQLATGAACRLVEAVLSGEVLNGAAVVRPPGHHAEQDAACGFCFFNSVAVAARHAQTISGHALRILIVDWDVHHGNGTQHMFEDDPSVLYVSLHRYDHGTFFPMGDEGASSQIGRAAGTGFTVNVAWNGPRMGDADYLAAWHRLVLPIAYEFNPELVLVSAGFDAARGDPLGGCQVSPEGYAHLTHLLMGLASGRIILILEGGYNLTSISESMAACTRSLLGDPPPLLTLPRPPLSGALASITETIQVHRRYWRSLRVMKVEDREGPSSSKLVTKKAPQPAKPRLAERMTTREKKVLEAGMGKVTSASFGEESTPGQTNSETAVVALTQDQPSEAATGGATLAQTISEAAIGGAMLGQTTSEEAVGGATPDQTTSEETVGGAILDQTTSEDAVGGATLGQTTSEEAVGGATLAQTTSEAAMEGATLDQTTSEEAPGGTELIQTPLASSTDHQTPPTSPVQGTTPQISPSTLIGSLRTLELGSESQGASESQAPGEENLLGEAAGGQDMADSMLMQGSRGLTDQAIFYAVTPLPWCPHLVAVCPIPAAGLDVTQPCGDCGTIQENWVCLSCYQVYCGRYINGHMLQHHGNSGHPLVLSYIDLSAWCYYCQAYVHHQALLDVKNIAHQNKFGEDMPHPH
Assay: Inhibition of N-terminal GST tagged human recombinant HDAC6 (1 to 1215 residues) expressed in Sf9 insect cells using Z-Lys(Ac)-AMC as fluorogenic substrate preincubated for 60 mins followed by substrate addition and measured after 90 mins by microplate reader analysis
# pIC50 is unitless: minus log10 of the molar concentration; print number only

Requested field: pIC50. Item: FC(F)(F)c1nnc(-c2cnc(NCc3ccccc3)nc2)o1
6.27

// query: FC(F)c1nnc(-c2cnc(NCc3ccccc3)nc2)o1
6.71

// query: COc1ccc(CNc2ncc(-c3nnc(C(F)F)o3)cn2)cc1
6.47
